tested on: anti-M2 human monoclonal antibody Z3G1; type: binding
Below, each entry is listed with its recorded Signal (peptides that bind to Z3G1).
Please give the numeric answer without any surrounding text.

substance	Signal (peptides that bind to Z3G1)
1498 (CETPIRNEWGLLTEVETPICVETPIRNEW; epitope peptide; MISC_FEATURE (1)..(1): C is an attachment site for a CLIP; MISC_FEATURE (10)..(10): G is an attachment site for a CLIP; MISC_FEATURE (11)..(11): L is an attachment site for a CLIP; MISC_FEATURE (29)..(29): W is an attachment site for a CLIP) [compound 1498]	1817
1325 (MSLLCEVETPIRNC; epitope peptide) [compound 1325]	2823
1321 (MCLLTEVETCIRNE; epitope peptide) [compound 1321]	1948
1257 (MKLLTEVETPIRNEWGCRCN; epitope peptide) [compound 1257]	2629
586 (SLLTEVETPIRNEWGCRCNISSD; epitope peptide) [compound 586]	2517

Input 699 (SLLTEVETPIRNEWGCRYNDSSD; epitope peptide) [compound 699] , output reported Signal (peptides that bind to Z3G1).
2169

###

system: anti-M2 human monoclonal antibody Z3G1; format: binding
reported.endpoint: Signal (peptides that bind to Z3G1)
// response body must contain only the number

A selection of reference data follows.
substance	Signal (peptides that bind to Z3G1)
1397 (CLLTEVCTPIRNEWG; epitope peptide) [compound 1397]	1634
1305 (MSLLTEVKTPIRNEWGCRCN; epitope peptide) [compound 1305]	2708
1339 (MCLLTEVGMSLLCEV; epitope peptide) [compound 1339]	2234
1358 (CLLTEVECPIRNE; epitope peptide) [compound 1358]	2326
1387 (SLLCEVETPIRNEWC; epitope peptide) [compound 1387]	2406
423 (SLLTEVETPIRNEWGCRCNDSHD; epitope peptide) [compound 423]	2353

Recall and state the measured Signal (peptides that bind to Z3G1) for 588 (SLLTEVETPIRNEWGCRCNCSSD; epitope peptide) [compound 588] .
2505

Give me measured Signal (peptides that bind to Z3G1), please, for this substance: 1333 (MSLLCEVETPIRNE; epitope peptide) [compound 1333]
2454

Give the measured Signal (peptides that bind to Z3G1) for 407 (SLLTEVETPIRNEWGCRCNDHSD; epitope peptide) [compound 407]
2537

###

test system: anti-M2 human monoclonal antibody Z3G1; type: binding
reported.endpoint: Signal (peptides that bind to Z3G1)
No unit in the answer, only the number.

Sample answers from the record:
substance	quantitative.readout
412 (SLLTEVETPIRNEWGCRCNDNSD; epitope peptide) [compound 412]	2389
420 (SLLTEVETPIRNEWGCRCNDSCD; epitope peptide) [compound 420]	2269
1330 (MSLLCEVECPIRNE; epitope peptide) [compound 1330]	2606
1338 (MSLLCEVGMSLCTEV; epitope peptide) [compound 1338]	2595
293 (CSLLTEVGMSLLTEV; epitope peptide) [compound 293]	2827

Supply reported Signal (peptides that bind to Z3G1) belonging to this substance: 439 (SLLTEVETPIRNE; epitope peptide) [compound 439]
1819

Write down Signal (peptides that bind to Z3G1) measured for item 1442 (CLTEVETPIRLLTEVETPICLTEVETPIR; epitope peptide; MISC_FEATURE (1)..(1): C is an attachment site for a CLIP; MISC_FEATURE (10)..(10): R is an attachment site for a CLIP; MISC_FEATURE (11)..(11): L is an attachment site for a CLIP; MISC_FEATURE (29)..(29): R is an attachment site for a CLIP) [compound 1442]
2057

###

tested on: anti-M2 human monoclonal antibody Z3G1; type: binding
Readings of Signal (peptides that show specific binding to Z3G1) for the listed substances
Lab note: record just the number, no unit beside it.

For orientation, consider the following solved cases.
substance	quantitative.readout
1556 (CSCLCEVGSLLCEV; epitope peptide) [compound 1556]	1583
667 (SLLTEVETPIRNEWGIRCNDSSD; epitope peptide) [compound 667]	2211
587 (SLLTEVETPIRCEWGCRCNDSSD; epitope peptide) [compound 587]	1956

Let me know recorded Signal (peptides that show specific binding to Z3G1) for 598 (SLLTEVETPIRNEWGCRKNDSSD; epitope peptide) [compound 598] , thanks.
2435

Fill in Signal (peptides that show specific binding to Z3G1) for record 226 (CTEVETPIRNEWGSRSCSLLTEVETC; epitope peptide) [compound 226]
2140

Output measured Signal (peptides that show specific binding to Z3G1) for this item: 610 (SLLTEVETDIRNEWGCRCNDSSD; epitope peptide) [compound 610]
2392

Query Signal (peptides that show specific binding to Z3G1) for 520 (VLLTEVETPIRNEWGCRCNDSSD; epitope peptide) [compound 520]
1758

Output Signal (peptides that show specific binding to Z3G1) of 1587 (SLLNEVETPIRNEWGCRCNDSSD; epitope peptide) [compound 1587]
2425

For 595 (SLLTEVETPIRNEWGWRCNDSSD; epitope peptide) [compound 595] , write its Signal (peptides that show specific binding to Z3G1).
2439

###

Here the recorded Signal (peptides that bind to 23K21 and 8I10) is given for each entry.
tested on: HuM2e antibody 23K12; type: binding, human
Form rule: numeric answer, no unit written next to it.

Please give measured Signal (peptides that bind to 23K21 and 8I10) of the following entry: 459 (SLITEVETPIRNEWGCRCNDSSD; epitope peptide) [compound 459]
1277

// Input: 368 (SLLTEVETPIRNEWG; epitope peptide) [compound 368] . Output its Signal (peptides that bind to 23K21 and 8I10) only.
1486

Complete the entry with Signal (peptides that bind to 23K21 and 8I10) for 223 (CVETPIRNEWGSRSNDCSLLTEVETC; epitope peptide) [compound 223]
905

Given the substance 651 (SLLTEVETPIRNEWGCRCHDSSD; epitope peptide) [compound 651] , write its reported Signal (peptides that bind to 23K21 and 8I10).
758

Tell me Signal (peptides that bind to 23K21 and 8I10) reported for 470 (MSLLTEVGCSLLTEC; epitope peptide) [compound 470]
1227

Kindly indicate its recorded Signal (peptides that bind to 23K21 and 8I10). Item: 617 (SLLTEVETPIRNSWGCRCNDSSD; epitope peptide) [compound 617]
807

Fill in reported Signal (peptides that bind to 23K21 and 8I10) for this entry: 462 (SLLTECGCLLTEV; epitope peptide) [compound 462]
1259

###

Measured Signal (peptides that bind to Z3G1) values are reported for all entries that follow.
tested on: anti-M2 human monoclonal antibody Z3G1; type: binding
# respond with the number and nothing more

substance	Signal (peptides that bind to Z3G1)
342 (SLLTEVETPIRNEWGCRCNSSSD; epitope peptide) [compound 342]	2440

Return reported Signal (peptides that bind to Z3G1). Input substance: 1386 (SLCCEVETPIRNEWG; epitope peptide) [compound 1386]
1603

Tell me measured Signal (peptides that bind to Z3G1) for 1396 (SLLCEVETPIRNEWG; epitope peptide) [compound 1396] please.
2384

// fetch Signal (peptides that bind to Z3G1) given entry 1324 (MCLLCEVETPIRNE; epitope peptide) [compound 1324]
2038

Identify measured Signal (peptides that bind to Z3G1) associated with 360 (CSLLTECGCSLLTEV; epitope peptide) [compound 360]
1427

###

system: HuM2e antibody 23K12; format: binding, human
Label fulfilled when Signal (peptides that bind to 23K21 and 8I10) is at or above 1000; anything below gets not fulfilled.

# count of solved cases: 3
substance	cat
364 (CSLLTEVGCSLLTEV; epitope peptide) [compound 364]	fulfilled
482 (CLCTCVGSLLTEV; epitope peptide) [compound 482]	fulfilled
357 (SLLTEVETPIPNEWGCRCNDSSD; epitope peptide) [compound 357]	fulfilled

Decide: is the reported value of Signal (peptides that bind to 23K21 and 8I10) for 599 (SLLTEVERPIRNEWGCRCNDSSD; epitope peptide) [compound 599] equal to or greater than 1000?
not fulfilled

Assess whether reported Signal (peptides that bind to 23K21 and 8I10) for 655 (SLYTEVETPIRNEWGCRCNDSSD; epitope peptide) [compound 655] sits at 1000 or higher.
not fulfilled

Test whether the substance 440 (SLLTEVETPIRNEW; epitope peptide) [compound 440] records Signal (peptides that bind to 23K21 and 8I10) of 1000 or higher.
not fulfilled

###

test system: HuM2e antibody 23K12; type: binding, human
# reported Signal (peptides that bind to 23K21 and 8I10); entries follow
Give only the figure.

# example entries with known answers
substance	assayed.target	quantitative.readout
550 (SLLTENETPIRNEWGCRCNDSSD; epitope peptide) [compound 550]	HuM2e antibody 23K12	914
546 (SLLTEVETPIRNRWGCRCNDSSD; epitope peptide) [compound 546]	HuM2e antibody 23K12	921
583 (SLLTEVWTPIRNEWGCRCNDSSD; epitope peptide) [compound 583]	HuM2e antibody 23K12	855
354 (SLLTEVGCSLLTEV; epitope peptide) [compound 354]	HuM2e antibody 23K12	1555
312 (TLLTEVETPIRNEWGCRCNDSSD; epitope peptide) [compound 312]	HuM2e antibody 23K12	1855

Please indicate Signal (peptides that bind to 23K21 and 8I10) recorded for 264 (CSLLTEVETCVETPIRNEWGSRSNDC; epitope peptide) [compound 264]
707

Retrieve Signal (peptides that bind to 23K21 and 8I10) measured for 318 (SLLTEVETPIRNEWGCRCKDSSD; epitope peptide) [compound 318] and print it.
1802

Given the substance 708 (SLLTEVETPIRNEGGCRCNDSSD; epitope peptide) [compound 708] , write its reported Signal (peptides that bind to 23K21 and 8I10).
708

Query Signal (peptides that bind to 23K21 and 8I10) for 641 (SLLTEVETPIRNELGCRCNDSSD; epitope peptide) [compound 641]
765
